# TARGET ENTITY: T1, RADIL, Q96JH8
# T1 sequence (Q96JH8 971-1071, limits assumed, looked up): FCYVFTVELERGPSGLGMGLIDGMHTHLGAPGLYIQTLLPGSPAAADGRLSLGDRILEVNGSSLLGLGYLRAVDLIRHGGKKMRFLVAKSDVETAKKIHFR
# EXPERIMENT SUMMARY: holdup assay
# Set-up: key: below the threshold = too weak to quantify, mostly under pKd 3.1 to 4
# MEASUREMENT CONDITIONS: plain residues with an end cap or a label only (N-terminal biotin on a linker: ado-ado)
READOUT TYPE: pKd

Some solved entries appear below for comparison.
SKENVQETQI [LRRC4B, Q9NT99]
below the threshold
DDEDRLVIEI [ZNF831, Q5JPB2]
4.02
CLREWCDAFL [BANF1, O75531]
3.85
PLSPEQPTKL [TRIM50, Q86XT4]
below the threshold
TKGPRGPTRV [SAPCD1, Q5SSQ6]
3.54
RRISSLESEV [GRIN2C, Q14957]
below the threshold
RRLPGKETMA [GRIK2, Q13002]
below the threshold

Q: Note down pKd recorded for QSLNRMEYIV [JAG1, P78504]
A: 4.82
